# MEASURED_TARGET: T1, biotin-labeled human CD137 fused to human IgG1 Fc fragment (human, biotin-labeled)
# T1 construct: also called human CD137-Fc; biotin-human CD137-Fc
# TEST_DETAILS: bead ELISA, IgG on biotin-human CD137-Fc; competitor: free CD3 epsilon 62.5 pmol
Would you mind telling me the reported ELISA signal, Free CD3e 62.5 pmol of each entry?

Some entries whose results are on file:
dBBDu186/L098 (antibody, V domains shown, Purified IgG; Fab genes of the panning output converted into IgG format) VH: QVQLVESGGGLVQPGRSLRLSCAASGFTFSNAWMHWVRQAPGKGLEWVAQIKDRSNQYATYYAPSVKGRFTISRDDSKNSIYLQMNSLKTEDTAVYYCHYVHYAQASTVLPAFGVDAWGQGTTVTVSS VL: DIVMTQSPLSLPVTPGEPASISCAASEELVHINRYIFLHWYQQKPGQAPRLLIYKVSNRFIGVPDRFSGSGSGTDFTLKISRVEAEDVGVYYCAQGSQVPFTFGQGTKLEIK
15900
dBBDu186/L106 (antibody, V domains shown, Purified IgG; Fab genes of the panning output converted into IgG format) VH: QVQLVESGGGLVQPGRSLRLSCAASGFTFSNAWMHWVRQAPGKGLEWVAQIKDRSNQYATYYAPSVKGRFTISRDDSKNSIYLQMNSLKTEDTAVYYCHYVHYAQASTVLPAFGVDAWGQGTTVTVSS VL: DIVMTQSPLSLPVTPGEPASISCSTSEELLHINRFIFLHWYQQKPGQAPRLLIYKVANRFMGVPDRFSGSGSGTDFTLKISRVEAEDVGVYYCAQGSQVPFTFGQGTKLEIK
3090

Give ELISA signal, Free CD3e 62.5 pmol for all binders that follow.
1. dBBDu186/L108 (antibody, V domains shown, Purified IgG; Fab genes of the panning output converted into IgG format) VH: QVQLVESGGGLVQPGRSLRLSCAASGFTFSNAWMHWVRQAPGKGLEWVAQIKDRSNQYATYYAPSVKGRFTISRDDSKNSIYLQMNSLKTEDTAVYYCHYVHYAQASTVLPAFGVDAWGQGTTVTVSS VL: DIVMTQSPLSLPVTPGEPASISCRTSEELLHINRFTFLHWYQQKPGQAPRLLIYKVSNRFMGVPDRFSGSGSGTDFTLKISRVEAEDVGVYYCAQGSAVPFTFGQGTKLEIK
2. dBBDu189/L119 (antibody, V domains shown, Purified IgG; Fab genes of the panning output converted into IgG format) VH: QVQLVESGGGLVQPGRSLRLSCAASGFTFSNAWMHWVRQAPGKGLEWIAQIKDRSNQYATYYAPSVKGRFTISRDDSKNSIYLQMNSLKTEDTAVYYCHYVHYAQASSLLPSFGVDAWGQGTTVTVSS VL: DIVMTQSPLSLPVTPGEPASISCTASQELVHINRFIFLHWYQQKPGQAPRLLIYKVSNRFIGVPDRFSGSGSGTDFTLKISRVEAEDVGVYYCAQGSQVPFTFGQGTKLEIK

1: 50800; 2: 20400

// data source = patent US20240270846A1
